Measured target: full-length human Tim3 on cells (CHO-K1 stably transfected with plasmid 15312_hTIM3-fl_pUC_Neo) (human, UniProt Q8TDQ0 22-301)
Test summary: cell-based or functional assay
Reported endpoint: IFN-gamma release in MLR at 40 µg/ml antibody, % of rec hu IL-2 (20 EU/ml) = 100% (%)
Answers are plain numbers, in %.

State the recorded IFN-gamma release in MLR at 40 µg/ml antibody, % of rec hu IL-2 (20 EU/ml) = 100% for this entry: Tim3_0026 (antibody, V domains shown) VH: QIQLVQSGPELKKPGETVKISCKASGYTFTDYSMHWVKQAPGRGLKWMGYINTETYEPTFGADFKGRFAFSLDTSATTAYLQINSLKTEDTATFFCGGGGYPAYWGQGTVVIVSA VL: DVLMTQTPLSLPVSLGDQASISCRSSRTILHSSGNTYLEWYLQKPGQSPKLLIYKVSNRFSGVPDRFSGSGSGTDFTLNISRVEAEDLGVYYCFQDSHVPFTFGTGTKLEIK
25
